What koff was measured for each of the following?
STUDY SYSTEM: T1, human CD36 (His-tagged) (human, UniProt P16671 30-439)
T1 construct: not shown: His tag
T1 sequence (P16671 30-439 limits assumed): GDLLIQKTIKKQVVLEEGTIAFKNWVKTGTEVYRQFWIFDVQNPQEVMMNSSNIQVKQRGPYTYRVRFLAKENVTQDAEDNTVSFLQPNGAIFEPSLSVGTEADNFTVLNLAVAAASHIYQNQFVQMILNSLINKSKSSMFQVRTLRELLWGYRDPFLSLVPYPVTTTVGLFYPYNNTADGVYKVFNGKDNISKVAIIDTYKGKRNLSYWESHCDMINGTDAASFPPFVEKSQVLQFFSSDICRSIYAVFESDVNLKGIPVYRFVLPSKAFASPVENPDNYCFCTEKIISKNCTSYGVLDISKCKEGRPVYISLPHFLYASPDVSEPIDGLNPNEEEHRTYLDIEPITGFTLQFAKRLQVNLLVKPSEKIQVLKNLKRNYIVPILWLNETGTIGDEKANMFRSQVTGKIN
METHOD DESCRIPTION: SPR (Biacore T200), His-captured CD36, bivalent analyte model
Give bare numbers, in s⁻¹.

Field: koff. Fill in for each record below.
1. 13G04 (antibody, human IgG1, V domains shown, Chimeric: mouse variable regions on human IgG1 LALA (L234A/L235A); also called 013G04) VH: QVQLQQSGAELVRPGASVKLSCKASGYTFTSYWMNWVKQRPGQGLEWIGMIDPSDNETHYNQMFKDKATLTVDKSSSTAYMQLSSLTSEDSAVYYCARSDYGNGYSFYLDVWGAGTTVTVSS VL: DIVLTQSPASLAVSLGQRATISCRASESVDSYGNSFMHWYQQKPGQPPKLLIYRASNLESGIPARFSGSGSRTDFTLTINPVEADDVATYYCQQSNEDPWTFGGGTKLEIK
2. 6G04 (antibody, human IgG1, V domains shown, Chimeric: mouse variable regions on human IgG1 LALA (L234A/L235A); also called 06G04; 006G04) VH: QVQLQQSGAELVMPGASVKMSCKASGYTFTDYWMHWVKQRPGQGLEWIGSIDTSDSYTTYSQKFKGKATLTVDESSSTAYMELARLTSEDSAIYYCVRGEDYEGTWFAYWGQGTLVTVSA VL: ETTVTQSPASLSVATGEKVTIRCITSTDIDDDMNWYQQKPGEPPKLLISEGNTLRPGVPSRFSSSGYGTDFVFTIENTLSEDVADYYCLQSDNMPLTFGAGTKLELK

[0.0037, 0.0002]
